These molecules were tested on serotonin-2 receptors (Rattus norvegicus, UniProt P14842); Ki is the recorded read-out.
Sequence (P14842 whole entry): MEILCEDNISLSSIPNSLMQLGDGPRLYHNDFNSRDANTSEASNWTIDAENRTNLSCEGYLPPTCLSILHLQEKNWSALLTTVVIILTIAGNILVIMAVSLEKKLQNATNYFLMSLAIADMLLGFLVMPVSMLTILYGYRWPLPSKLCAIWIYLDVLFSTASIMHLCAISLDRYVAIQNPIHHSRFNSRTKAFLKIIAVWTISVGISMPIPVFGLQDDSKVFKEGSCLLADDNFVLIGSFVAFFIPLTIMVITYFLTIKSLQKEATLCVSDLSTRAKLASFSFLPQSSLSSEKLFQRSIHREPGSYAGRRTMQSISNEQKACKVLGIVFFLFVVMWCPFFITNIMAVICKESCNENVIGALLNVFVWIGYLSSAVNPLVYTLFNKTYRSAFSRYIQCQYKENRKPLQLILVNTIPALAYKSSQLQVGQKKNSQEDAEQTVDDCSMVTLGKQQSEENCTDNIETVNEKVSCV

MOLECULE: Fc1ccc2[nH]c3c(c2c1)CN(CCc1ccncc1)CC3 [Example 3]
Ki: 211 nM
--
MOLECULE: Fc1ccc2[nH]c3c(c2c1)CN(CCCc1cccnc1)CC3 [Example 11]
Ki: 136 nM
--
MOLECULE: Clc1ccc2[nH]c3c(c2c1)CN(CCCCc1ccncc1)CC3 [Example 8]
Ki: 60 nM
--
MOLECULE: c1cncc(CCCN2CCc3[nH]c4ccccc4c3C2)c1 [Example 7]
Ki: 252 nM
--
MOLECULE: Clc1ccc2[nH]c3c(c2c1)CN(CCCc1ccccn1)CC3 [Example 12]
Ki: 28 nM

* * *

Listed next: entries and their corresponding ED50.
- System: conditioned avoidance responding (lever-response)
- TEST_DETAILS: Conditioned avoidance, lever-response (L-R)
- Assay type: in vivo, male CD rats
- CONDITION_NOTES: Rattus norvegicus, po; 95% confidence interval in brackets; read-out: L-R AB50 (50% block in avoidance responding)
PROPERTY_LABEL: ED50

ITEM_SMILES: c1ccc2c3c([nH]c2c1)CCN(CCCCc1ccncc1)C3
RESULT: > 20 mg/kg
--
ITEM_SMILES: Clc1ccc2[nH]c3c(c2c1)CN(CCc1ccc2ccccc2n1)CC3
RESULT: > 40 mg/kg
--
ITEM_SMILES: Clc1ccc2[nH]c3c(c2c1)CN(CCCc1ccccn1)CC3
RESULT: > 40 mg/kg
--
ITEM_SMILES: Clc1ccc2[nH]c3c(c2c1)CN(CCc1ccccn1)CC3
RESULT: > 40 mg/kg
